Recorded MIC values for a group of compounds are listed next.
- Tested on: Staphylococcus capitis (American Type Culture Collection number 35661)
- MEASUREMENT_NOTES: Minimal inhibitory concentration (MIC), two fold serial dilutions in 2×YT broth
- Type: cell-based
- CONDITION_NOTES: S. capitis ATCC 35661, 2×YT broth, 37° C., 18 hours; lowest concentration that inhibited visible growth
- Description: Minimal inhibitory concentrations (MIC) of compounds of the invention against E. coli strains DH5α (Genotype; F-ω80dlacZΔM15Δ(lacZYA-argF)U169 deoR recA1 endA1 hsdR17(rk^−,mk^+)phoA supE44λ^−thi-1 gyrA96 relA1) obtained from Gibco BRL Life Technologies, or Staphylococcus capitis (American Type Culture Collection number 35661) were determined as follows. […] The MIC (μM) was recorded as the lowest drug concentration that inhibited visible growth.

{"CHEM_SMILES": "CC(C)(C)[C@H](NC(=O)[C@H](CC1CCCC1)CN(O)C=O)C(=O)N1CCN(Cc2ccccc2C#N)CC1", "TARGET_SYSTEM": "Staphylococcus capitis (American Type Culture Collection number 35661)", "MIC": "6.2 µM"}
{"CHEM_SMILES": "CC(C)(C)[C@H](NC(=O)[C@H](CC1CCCC1)CN(O)C=O)C(=O)N1CCN(Cc2ccc3ccccc3c2)CC1", "TARGET_SYSTEM": "Staphylococcus capitis (American Type Culture Collection number 35661)", "MIC": "3.1 µM"}
{"CHEM_SMILES": "CCCC[C@H](CN(O)C=O)C(=O)N[C@H](C(=O)N1CCN(Cc2ccccc2C#N)CC1)C(C)(C)C", "TARGET_SYSTEM": "Staphylococcus capitis (American Type Culture Collection number 35661)", "MIC": "12 µM"}
{"CHEM_SMILES": "CCCC[C@H](CN(O)C=O)C(=O)N[C@H](C(=O)N1CCN(S(=O)(=O)c2ccc(-c3ccccc3)cc2)CC1)C(C)(C)C", "TARGET_SYSTEM": "Staphylococcus capitis (American Type Culture Collection number 35661)", "MIC": "200 µM"}
{"CHEM_SMILES": "CCCC[C@H](CN(O)C=O)C(=O)N[C@H](C(=O)N1CCN(C(=O)c2sc(C)nc2C)CC1)C(C)(C)C", "TARGET_SYSTEM": "Staphylococcus capitis (American Type Culture Collection number 35661)", "MIC": "25 µM"}
{"CHEM_SMILES": "CCCC[C@H](CN(O)C=O)C(=O)N[C@H](C(=O)N1CCN(C(=O)c2ccc(-c3ccccc3)cc2)CC1)C(C)(C)C", "TARGET_SYSTEM": "Staphylococcus capitis (American Type Culture Collection number 35661)", "MIC": "6.25 µM"}
{"CHEM_SMILES": "CC(C)(C)[C@H](NC(=O)[C@H](CC1CCCC1)CN(O)C=O)C(=O)N1CCN(Cc2ccc(-c3ccccc3)cc2)CC1", "TARGET_SYSTEM": "Staphylococcus capitis (American Type Culture Collection number 35661)", "MIC": "6.2 µM"}

Next up:
Which MIC value belongs to CCCC[C@H](CN(O)C=O)C(=O)N[C@H](C(=O)N1CCN(C(=O)c2snnc2C)CC1)C(C)(C)C ?
25 µM
